TARGET_OF_ASSAY: human MGL from HeLa cells (Homo sapiens (Human))
ASSAY_EXPLANATION: MGL in vitro activity assay ([glycerol-1,3-3H]-oleoyl glycerol hydrolysis, activated carbon filtration)
Assay type: biochemical
MEASUREMENT_CONTEXT: 300 nM [Glycerol-1,3-3H]-oleoyl glycerol, one hour
Source text: The assay used to measure the in vitro activity of MGL is adapted from the assay used for another serine hydrolase (FAAH) described in Wilson et al., 2003 (A high-throughput-compatible assay for determining the activity of fatty acid amide hydrolase. Wilson S J, Lovenberg T W, Barbier A J. Anal Biochem. 2003 Jul. 15; 318(2):270-5). […]
Response field label: string, one of yes (IC50 strictly below 10 nM) or no.

Known results for compounds:
C[C@]1(O)C[C@@H](C(=O)N2CC3(CCC(c4cccc(C5CC5)c4F)C3)C2)C1 (mixture of isomers): no
Cc1cnc(OC2CCC3(CC2)CN(C(=O)[C@H]2C[C@@](C)(O)C2)C3)c(C)c1: no
CCOc1nc(OC2CCC3(CC2)CN(C(=O)[C@H]2C[C@@](C)(O)C2)C3)ccc1C(F)(F)F: yes
COc1cc(C2CCC3(CC2)CN(C(=O)[C@H]2C[C@@](C)(O)C2)C3)cc(F)c1C: no

With those in mind, consider the next compound.
// query Strictly below 10 nM in IC50? C[C@]1(O)C[C@@H](C(=O)N2CC3(CCC(Cc4ccc(C(F)F)cc4)C3)C2)C1 (mixture of isomers)
// result no

###

The entries below come with measured pIC50 values attached.
TARGET_OF_ASSAY: human MGL from HeLa cells (Homo sapiens (Human), UniProt Q99685)
Sequence (Q99685 whole entry): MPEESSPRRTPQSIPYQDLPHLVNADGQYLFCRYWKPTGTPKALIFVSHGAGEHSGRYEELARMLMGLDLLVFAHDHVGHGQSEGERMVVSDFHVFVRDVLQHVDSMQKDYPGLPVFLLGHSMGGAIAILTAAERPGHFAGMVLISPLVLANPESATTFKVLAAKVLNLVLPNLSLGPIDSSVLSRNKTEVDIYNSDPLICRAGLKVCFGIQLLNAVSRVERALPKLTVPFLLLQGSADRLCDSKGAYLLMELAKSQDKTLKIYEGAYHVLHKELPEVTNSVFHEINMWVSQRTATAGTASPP
ASSAY_EXPLANATION: MGL in vitro activity assay ([glycerol-1,3-3H]-oleoyl glycerol hydrolysis, activated carbon filtration)
MEASUREMENT_CONTEXT: 300 nM [Glycerol-1,3-3H]-oleoyl glycerol, one hour
Notebook: values listed as pIC50 are -log10 of the concentration (mol/L).

As a guide, the following entries are already answered.
Cc1ccc([C@@H]2CCC3(C2)CN(C(=O)[C@H]2C[C@@](C)(O)C2)C3)c(C)c1 (stereo in doubt) [Example 322]: 7.19
CC(C)c1ccccc1CC1CC2(C1)CN(C(=O)[C@H]1C[C@@](C)(O)C1)C2 [Example 187]: 7.92
Cc1ccc(C(F)(F)F)c(OC2CCC3(CC2)CN(C(=O)[C@H]2C[C@@](C)(O)C2)C3)n1 [Example 443]: 7.77

Continue with the compound presented below.
// query Find pIC50 (human MGL from HeLa cells (Homo sapiens (Human), UniProt Q99685)) for the entry CCOc1cc(C2CCC3(CC2)CN(C(=O)[C@H]2C[C@@](C)(O)C2)C3)ccc1C [Example 360]
// result 7.44

###

Documented pIC50 across a set of compounds
TARGET_OF_ASSAY: human MGL from HeLa cells (Homo sapiens (Human))
ASSAY_EXPLANATION: MGL in vitro activity assay ([glycerol-1,3-3H]-oleoyl glycerol hydrolysis, activated carbon filtration)
MEASUREMENT_CONTEXT: 300 nM [Glycerol-1,3-3H]-oleoyl glycerol, one hour
Please keep in mind that pIC50 is minus log10 of the molar concentration; only the number is needed.

Cn1cc(C(F)(F)F)c2ccc(C3CCC4(CC3)CN(C(=O)[C@H]3C[C@@](C)(O)C3)C4)nc21 [Example 386]: 7.72
C[C@]1(O)C[C@@H](C(=O)N2CC3(CCC(c4ccccc4)CC3)C2)C1 [Example 37]: 7.24
Cc1cc(C(F)(F)F)ccc1OC1CCC2(CC1)CN(C(=O)[C@H]1C[C@@](C)(O)C1)C2 [Example 258]: 9.70

// query Any idea what pIC50 was measured for Cc1ccc(CC2CC3(C2)CN(C(=O)[C@H]2C[C@@](C)(O)C2)C3)nc1C(F)(F)F [Example 277] ?
// result 7.74

// query For Cc1ccc(C2CCC3(C2)CN(C(=O)[C@H]2C[C@@](C)(O)C2)C3)cc1C(F)(F)F (mixture of isomers) [Example 65] , what is its reported pIC50?
// result 7.96

// query Would you mind telling me what pIC50 value was observed for C[C@]1(O)C[C@@H](C(=O)N2CC3(CC(Cc4ccccc4)C3)C2)C1 [Example 164] ?
// result 7.28

// query Bench note: what pIC50 did C[C@]1(O)C[C@@H](C(=O)N2CC3(CC(Cc4ccccc4C4CC4)C3)C2)C1 [Example 271] show?
// result 8.44

// query Give its pIC50 value. Item: C[C@]1(O)C[C@@H](C(=O)N2CC3(CCC(Oc4ncc(C(F)(F)F)cc4F)CC3)C2)C1 [Example 457]
// result 7.89
